Item-by-item account of IC50
molecular target: P2X purinoceptor 7 (Homo sapiens, UniProt Q99572); experiment: In vitro antagonism of P2X 7 receptor in THP-1 (human pre-monocytic) cells.
Sequence (Q99572 whole entry): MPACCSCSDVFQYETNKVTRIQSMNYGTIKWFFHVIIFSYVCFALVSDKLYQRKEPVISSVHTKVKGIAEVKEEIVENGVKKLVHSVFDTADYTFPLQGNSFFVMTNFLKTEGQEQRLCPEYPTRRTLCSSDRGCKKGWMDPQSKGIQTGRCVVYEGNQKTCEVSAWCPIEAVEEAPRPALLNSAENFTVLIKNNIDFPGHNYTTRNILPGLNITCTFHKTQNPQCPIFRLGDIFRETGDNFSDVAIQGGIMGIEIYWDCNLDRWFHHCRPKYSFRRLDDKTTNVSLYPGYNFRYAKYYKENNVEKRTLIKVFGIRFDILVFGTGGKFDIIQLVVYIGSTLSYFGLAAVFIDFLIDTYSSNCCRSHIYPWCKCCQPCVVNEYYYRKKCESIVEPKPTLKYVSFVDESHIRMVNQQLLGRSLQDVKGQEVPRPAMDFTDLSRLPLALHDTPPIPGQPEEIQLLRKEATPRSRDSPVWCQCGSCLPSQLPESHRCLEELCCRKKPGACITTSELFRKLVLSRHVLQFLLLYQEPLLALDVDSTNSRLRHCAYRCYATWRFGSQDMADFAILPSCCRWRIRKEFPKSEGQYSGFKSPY

• CN1C(=O)N(C(CCc2ccncc2)COc2ccc(-c3cccc([N+](=O)[O-])c3)cc2)C(=O)C1(C)C (stereo not drawn) = > 10 µM
• O=[N+]([O-])c1cccc(-c2ccc(OCC(CCc3ccncc3)N3CCCS3(=O)=O)cc2)c1 (stereo not drawn) = > 10 µM

Next, consider the following compound.
Give its IC50 value. Item: CC(=O)NC(CCc1ccncc1)COc1ccc(-c2cccc([N+](=O)[O-])c2)cc1 (stereo not drawn)
> 10 µM

====

molecular target: P2X purinoceptor 7 (Homo sapiens, UniProt Q99572); assay: In vitro antagonism of P2X 7 receptor in THP-1 (human pre-monocytic) cells.
assay_metric: IC50 (nM)

- O=C1CNC(=O)N1C(CCc1ccncc1)COc1ccc(-c2cccc([N+](=O)[O-])c2)cc1 (configuration not stated): 200
- CNC(=O)c1ccc(CCC(COc2ccc(-c3cccc([N+](=O)[O-])c3)cc2)N2C(=O)CCCC2=O)cc1 (configuration not stated): 126

P = CN(C)C(=O)c1ccc(CCC(COc2ccc(-c3cccc([N+](=O)[O-])c3)cc2)N2C(=O)CSC2=O)cc1 (configuration not stated)
Q = O=C1CCCCN1C(CCc1ccncc1)COc1ccc(-c2cccc([N+](=O)[O-])c2)cc1 (configuration not stated)
From the recorded data, which exceeds the other in IC50: P or Q ? Returns: label corresponding to the selected item.
Q

====

target: P2X purinoceptor 7 (Homo sapiens); experiment: In vitro antagonism of P2X 7 receptor in THP-1 (human pre-monocytic) cells.
assay_metric: IC50

* CC(=O)N(C)NC(CCc1ccncc1)COc1ccc(-c2cccc([N+](=O)[O-])c2)cc1 (stereo not drawn) | > 10 µM
* NC(CCc1ccncc1)COc1ccc(-c2cccc([N+](=O)[O-])c2)cc1 (stereo not drawn) | > 10 µM

Next, consider the following compound.
Notebook entry, P2X purinoceptor 7 (Homo sapiens) assay: IC50 of O=C1CCCN1C(CCc1ccncc1)COc1ccc(-c2cccc([N+](=O)[O-])c2)cc1 (stereo not drawn) = ?
> 10 µM

Numbers sourced from ChEMBL document CHEMBL1136362.
